The measurements presented in this section are drawn from paper PMC9238401.

- System: tobacco leaves
- METHOD_SUMMARY: Effect of peptide infiltration on tobacco leaves (phytotoxicity)
- Type: in vivo
- PROTOCOL_CONDITIONS: 100 μL infiltrated into mesophyll, lesion diameter 48 h after infiltration, at least three leaves; ± confidence interval (α = 0.05)
hey, just use condition met if measured Size of the lesions in infiltrated tobacco leaves at 50 μM is less than 0.2 cm, otherwise condition not met

[
  {
    "SUBSTANCE": "KKLFKKILKYL-FKLFKKILKVL-NH2 [BP100-BP13, peptide conjugate, BP100 at N-terminus, BP13 at C-terminus]",
    "ASSIGNED_CLASS": "condition not met"
  }
]

Size of the lesions in infiltrated tobacco leaves at 50 μM under 0.2 cm? Item: FKLFKKILKVL-KKLfKKILKYL-NH2 [BP13-BP143, peptide conjugate, BP13 at N-terminus, BP143 at C-terminus]
condition not met

Size of the lesions in infiltrated tobacco leaves at 50 μM under 0.2 cm? Item: Ac-KKLFKKIK(COC3H7)KYL-RINSAKDDAAGLQIA-OH [BP387-flg15, peptide conjugate, lipopeptide BP387 at N-terminus, flg15 at C-terminus]
condition not met

Size of the lesions in infiltrated tobacco leaves at 50 μM under 0.2 cm? Item: Ac-KKLfKKILKK(COC3H7)L-RINSAKDDAAGLQIA-OH [BP475-flg15, peptide conjugate, lipopeptide BP475 at N-terminus, flg15 at C-terminus]
condition not met

Size of the lesions in infiltrated tobacco leaves at 50 μM under 0.2 cm? Item: KKLFKKILKKL-RINSAKDDAAGLQIA-OH [BP16-flg15, peptide conjugate, BP16 at N-terminus, flg15 at C-terminus]
condition met

###

- Test system: Pseudomonas syringae pv. actinidiae Psa3700.1.1
- METHOD_SUMMARY: In vitro growth inhibition (MIC)
- Assay type: cell-based
- PROTOCOL_CONDITIONS: TSB, 25°C, 48 h, OD 600 nm (Bioscreen C), three replicates, experiment repeated twice; MIC given as range
Listed substances paired with reported MIC, Psa

Answered examples (4):
[
  {
    "SUBSTANCE": "KKVVFWVKFK-RINSAKDDAAGLQIA-OH [KSLW-flg15, peptide conjugate, KSL-W at N-terminus, flg15 at C-terminus]",
    "RESULT": "> 50 µM"
  },
  {
    "SUBSTANCE": "KKLFKKILKKL-RINSAKDDAAGLQIA-OH [BP16-flg15, peptide conjugate, BP16 at N-terminus, flg15 at C-terminus]",
    "RESULT": "12.5 to 25 µM"
  },
  {
    "SUBSTANCE": "FKLFKKILKVL-NH2 [BP13, reference compound]",
    "RESULT": "3.1 to 6.2 µM"
  },
  {
    "SUBSTANCE": "Ac-KKLFKKIK(COC3H7)KYL-RINSAKDDAAGLQIA-OH [BP387-flg15, peptide conjugate, lipopeptide BP387 at N-terminus, flg15 at C-terminus]",
    "RESULT": "6.2 to 12.5 µM"
  }
]

Return MIC, Psa for the following substance: H-RINSAKDDAAGLQIAKKLFKKILKKL-NH2 [flg15-BP16]
3.1 to 6.2 µM

Return MIC, Psa for the following substance: KKLFKKILKYL-RINSAKDDAAGLQIA-OH [BP100-flg15, peptide conjugate, BP100 at N-terminus, flg15 at C-terminus]
1.6 to 3.1 µM

Return MIC, Psa for the following substance: H-KKVVFWVKFKYGIHTH-NH2 [KSLW-PIP1]
> 50 µM
